test: Hansen solubility parameters (HSP) from rated solvent library, optimized in HSPiP; Ra and RED versus water; assay type: physicochemical; settings: experimentally rated solvent library, HSPiP
MEASURED METRIC: δH (hydrogen bonding solubility parameter)

Here's what some known entries look like.
{"columns": ["COMPOUND", "RESULT"],
 "data": [
  ["c1ccc(-c2nc3c4ccccc4c4ccccc4c3o2)nc1 [C8]", "7.8 (MPa)^0.5"],
  ["c1ccc(-c2nc3c4cccnc4c4ncccc4c3[nH]2)cc1 [C3]", "10.1 (MPa)^0.5"]
]}

Just so you know, measured δH (hydrogen bonding solubility parameter) for c1ccc(-c2nc3c4cccnc4c4ncccc4c3o2)cc1 [C9] came out at 15.5 (MPa)^0.5

GET /value?item= c1cncc(-c2nc3c4cccnc4c4ncccc4c3o2)c1 [C11] &field=δH (hydrogen bonding solubility parameter) returns 15.9 (MPa)^0.5

For this compound ( c1ccc(-c2nc3c4cccnc4c4ncccc4c3o2)nc1 [C12] ), measured δH (hydrogen bonding solubility parameter) is 17.2 (MPa)^0.5

Recorded δH (hydrogen bonding solubility parameter) (compound c1cnc2c(c1)c1nc(-c3ccncc3)oc1c1cccnc12 [C10] ): 15.8 (MPa)^0.5

// c1ccc(-c2nc3c4ccccc4c4ccccc4c3o2)cc1 [C7] : δH (hydrogen bonding solubility parameter) value = 7.5 (MPa)^0.5

Input c1cnc2c(c1)c1nc(-c3ccncc3)[nH]c1c1cccnc12 [C4] . Output δH (hydrogen bonding solubility parameter): 16.1 (MPa)^0.5

Please fill in: δH (hydrogen bonding solubility parameter) reported for c1ccc(-c2nc3c4ccccc4c4ccccc4c3[nH]2)cc1 [C2] = 8.1 (MPa)^0.5

Just so you know, measured δH (hydrogen bonding solubility parameter) for c1cncc(-c2nc3c4cccnc4c4ncccc4c3[nH]2)c1 [C5] came out at 16.5 (MPa)^0.5

// field: δH (hydrogen bonding solubility parameter); key: c1ccc(-c2nc3c4cccnc4c4ncccc4c3[nH]2)nc1 [C6] ; value = 16.8 (MPa)^0.5

* * *

experiment: Hansen solubility parameters (HSP) from rated solvent library, optimized in HSPiP; Ra and RED versus water; format: physicochemical; conditions: experimentally rated solvent library, HSPiP
Readings of δD (dispersion solubility parameter) for the listed compounds

{"columns": ["COMPOUND", "δD (dispersion solubility parameter)"],
 "data": [
  ["c1ccc(-c2nc3c4ccccc4c4ccccc4c3o2)nc1 [C8]", "19.4 (MPa)^0.5"],
  ["c1cnc2c(c1)c1nc(-c3ccncc3)oc1c1cccnc12 [C10]", "17.7 (MPa)^0.5"],
  ["c1cnc2c(c1)c1nc(-c3ccncc3)[nH]c1c1cccnc12 [C4]", "16.4 (MPa)^0.5"]
]}

Consider the additional compound presented here.
The compound listed as c1ccc(-c2nc3c4cccnc4c4ncccc4c3[nH]2)nc1 [C6] shows δD (dispersion solubility parameter) equal to 16.1 (MPa)^0.5

* * *

Each entry below carries its recorded solubility at 24 h.
experiment: Shake-flask thermodynamic aqueous solubility (1H NMR quantification); format: physicochemical; settings: water, thermodynamic from solid, D2O, room temperature, 24 h

Previously resolved entries follow.
{"columns": ["MOLECULE", "solubility at 24 h"],
 "data": [
  ["c1ccc(-c2nc3c4ccccc4c4ccccc4c3[nH]2)cc1 [C2]", "< 100 µg/mL"],
  ["c1ccc(-c2nc3c4ccccc4c4ccccc4c3o2)cc1 [C7]", "< 100 µg/mL"],
  ["c1cnc2c(c1)c1nc(-c3ccncc3)oc1c1cccnc12 [C10]", "40000 µg/mL"],
  ["c1cnc2c(c1)c1nc(-c3ccncc3)[nH]c1c1cccnc12 [C4]", "< 100 µg/mL"],
  ["c1cncc(-c2nc3c4cccnc4c4ncccc4c3o2)c1 [C11]", "13000 µg/mL"]
]}

According to the records, this molecule c1ccc(-c2nc3c4cccnc4c4ncccc4c3[nH]2)cc1 [C3] displays solubility at 24 h of < 100 µg/mL

Input c1ccc(-c2nc3c4cccnc4c4ncccc4c3o2)cc1 [C9] . Output solubility at 24 h: 900 µg/mL

Kindly note the recorded solubility at 24 h for c1ccc(-c2nc3c4cccnc4c4ncccc4c3[nH]2)nc1 [C6] , which is < 100 µg/mL

Recorded result, c1cncc(-c2nc3c4cccnc4c4ncccc4c3[nH]2)c1 [C5] , solubility at 24 h: < 100 µg/mL

Lab note: c1ccc(-c2nc3c4ccccc4c4ccccc4c3o2)nc1 [C8] gave solubility at 24 h of < 100 µg/mL

Note to self: solubility at 24 h recorded for c1ccc(-c2nc3c4cccnc4c4ncccc4c3o2)nc1 [C12] was 150000 µg/mL
